- TARGET UNDER TEST: rhIGF-1/rhIGFBP-3 drug product (Homo sapiens, UniProt P05019+P17936, DEL119-195)
- Construct: purchased Takeda, Lexington, MA, USA
- Sequence (P05019 49-118 limits assumed, stated change not applied): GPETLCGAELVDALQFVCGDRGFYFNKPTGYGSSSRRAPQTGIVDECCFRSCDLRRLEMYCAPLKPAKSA
- Sequence (P17936 28-291, stated change not applied): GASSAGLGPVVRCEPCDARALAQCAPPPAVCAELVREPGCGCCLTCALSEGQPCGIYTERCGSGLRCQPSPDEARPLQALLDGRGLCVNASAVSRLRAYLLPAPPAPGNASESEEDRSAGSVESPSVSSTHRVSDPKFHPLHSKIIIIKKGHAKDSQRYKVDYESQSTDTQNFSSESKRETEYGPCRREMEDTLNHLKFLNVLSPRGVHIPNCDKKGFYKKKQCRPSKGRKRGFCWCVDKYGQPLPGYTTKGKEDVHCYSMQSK
- ASSAY REMARKS: In vitro physical compatibility of test medications mixed with rhIGF-1/rhIGFBP-3 (visual observation, OD320, pH, osmolality)
- Assay type: physicochemical
ENDPOINT: physical compatibility with rhIGF-1/rhIGFBP-3

NC[C@H](O)c1ccc(O)c(O)c1 [Norepinephrine bitartrate] = considered incompatible
Cl.NCCc1ccc(O)c(O)c1 [Dopamine hydrochloride] = considered incompatible
